Measured normalized growth by item
Assay: chemical genetic growth profiling, strain panel (AID 1159580);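 also: tested at 20 µM; growth read once vehicle control cultures reached saturation at 30 °C; 1 = growth at the plate median or of vehicle wells; lower values mean less growth of the strain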
Conditions: S. cerevisiae deletion strains, growth OD, locus YDR101C, strain arx1, hits give low values
Hit rate of the full screen: of about 5,500 compounds, about 2,000 (36%) were called active. Another 18% or so got no clear call; they are omitted. Some of the results follow.
Form field (numeric): enter value without unit.

Some compounds with recorded normalized growth:
Compound	Endpoint result
COc1ccc(/C=C/c2cc(O)cc(O)c2)cc1	0.878
COc1cc(/C=C/C(=O)O)cc(OC)c1OC	1.01
CC(=O)O[C@H]1CC[C@@]2(C)C(=CCC3C2CC[C@@]2(C)C3CC[C@@H]2C(C)CCCC(C)C)C1 (some centres not stated)	1.02
COc1ccc(/C=C/C(=O)O)cc1OC	1.01
C[C@@H]1CC2C3CCC4=CC(=O)C=C[C@]4(C)[C@@]3(F)[C@@H](O)C[C@]2(C)[C@@]1(O)C(=O)COP(=O)(O)O (some centres not stated)	0.996
CO[C@@H]1C[C@@H](C[C@H]2CC[C@H](C)[C@H]([C@@H](C)C(=O)O)O2)O[C@]2(O[C@](C)([C@H]3CC[C@@](C)(C4O[C@@H](C5O[C@@](O)(CO)[C@H](C)C[C@@H]5C)C[C@@H]4C)O3)C[C@H]2C)[C@@H]1C (some centres not stated)	0.977
CC(C)C1=CC2=CCC3[C@](C)(CCC[C@]3(C)C(=O)O)C2CC1 (some centres not stated)	1.05
C=CCc1cc(OC)c2c(c1OC)OCO2	0.908
CC1(C)C2CC(=O)O[C@@]3(C)C4=CC(=O)O[C@@H](c5ccoc5)[C@]4(C)CCC3[C@@]2(C)C=C[C@H]1O (some centres not stated)	1
Oc1cc(O)cc(/C=C/c2ccccc2)c1	1.04

Find the recorded normalized growth belonging to O=C(O)P(=O)(O)O and report it.
0.983

Please do the same for COc1ccc(/C=C/c2cc(O)cc(O[C@@H]3O[C@H](CO)[C@@H](O)[C@H](O)[C@H]3O)c2)cc1O as well.
1.01
